Recorded values, source patent US20210388081A1.

Target Desc: T1, Fc Receptor-like 5 (FcRL5), full length, overexpressed on 3T3 or Raji cells (human, UniProt Q96RD9 16-977)
T1 construct: also called 3T3-FcRL5
T1 sequence: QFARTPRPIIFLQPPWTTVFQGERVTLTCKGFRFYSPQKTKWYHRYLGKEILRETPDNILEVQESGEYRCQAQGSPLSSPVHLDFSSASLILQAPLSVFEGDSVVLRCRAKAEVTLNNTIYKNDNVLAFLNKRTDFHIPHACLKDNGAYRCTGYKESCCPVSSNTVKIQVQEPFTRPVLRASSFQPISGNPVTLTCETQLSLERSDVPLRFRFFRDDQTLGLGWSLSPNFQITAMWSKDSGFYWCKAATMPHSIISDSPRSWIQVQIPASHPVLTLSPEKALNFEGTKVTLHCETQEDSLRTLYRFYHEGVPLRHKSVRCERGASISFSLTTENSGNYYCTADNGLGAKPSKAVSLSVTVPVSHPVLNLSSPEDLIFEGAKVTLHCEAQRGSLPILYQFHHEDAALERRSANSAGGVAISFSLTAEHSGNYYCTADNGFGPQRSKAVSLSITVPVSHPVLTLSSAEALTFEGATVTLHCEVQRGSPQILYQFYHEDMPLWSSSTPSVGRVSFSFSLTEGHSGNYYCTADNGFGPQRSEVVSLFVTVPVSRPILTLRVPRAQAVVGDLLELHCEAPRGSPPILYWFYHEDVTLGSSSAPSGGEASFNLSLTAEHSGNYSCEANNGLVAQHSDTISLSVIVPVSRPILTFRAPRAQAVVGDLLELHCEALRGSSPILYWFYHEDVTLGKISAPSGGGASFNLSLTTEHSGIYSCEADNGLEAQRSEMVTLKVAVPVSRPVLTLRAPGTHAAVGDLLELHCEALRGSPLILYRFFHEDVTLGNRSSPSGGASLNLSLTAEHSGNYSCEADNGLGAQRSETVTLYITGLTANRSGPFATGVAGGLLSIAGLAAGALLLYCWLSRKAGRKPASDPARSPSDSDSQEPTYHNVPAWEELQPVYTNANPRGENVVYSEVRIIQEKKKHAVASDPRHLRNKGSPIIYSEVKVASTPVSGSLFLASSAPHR
Assay Method Text: phage clone screening on cells
Measurement Name: binding result

Binder	Measurement Name	Result
ET200-107 (scFv, screened as phage clone; entry is VL-linker-VH-His tag-HA tag) scFv: QSVVTQPPSVSAAPGEKVTISCSGSNFNVGNNDVSWYQQLPGAAPKLLIYDNNKRPSGIPDRFSGSKSGTSATLDITGLHSDDEADYYCGTWDSSLNTGGVFGTGTKVTVLGSRGGGGSGGGGSGGGGSLEMAEVQLVQSGAEVKKPGASVKVSCKASGYTFTSYTISWVRQAPGQGLEWMGWISTYNGLTNYAQNLQGRVTMTTDTFTTTAYMELRSLRSDDTAVYYCVREGSPDYGDFASFDYWGQGTLVTVSSTSGQAGQHHHHHHGAYPYDVPDYAS	binding result	binds
